# Tested on: IgE antibodies of the individual allergic patient serum II/17
# Protocol notes: EAST inhibition, individual serum II/17
Reported property: IC50

Q) Quick one: IC50 of natural Phl p 5b, purified by affinity chromatography (protein) ADAGYAPATPAAAGAAAGKATTEEQKLIEDINVGFKAAVAAAASVPAADKFKTFEAAFTSSSKAAAAKAPGLVPKLDAAYSVAYKAAVGATPEAKFDSFVASLTEALRVIAGALEVHAVKPVTEEPGMAKIPAGELQIIDKIDAAFKVAATAAATAPADDKFTVFEAAFNKAIKESTGGAYDTYKCIPSLEAAVKQAYAATVAAAPQVKYAVFEAALTKAITAMSEVQKVSQPATGAATVAAGAATTAAGAASGAATVAAGGYKV ?
A) 2.6 nM

Q) Quick one: IC50 of rPhl p 5b point mutant PM1 (N32D, D49L, K50A) (protein) ADAGYAPATPAAAGAAAGKATTEEQKLIEDIDVGFKAAVAAAASVPAALAFKTFEAAFTSSSKAAAAKAPGLVPKLDAAYSVAYKAAVGATPEAKFDSFVASLTEALRVIAGALEVHAVKPVTEEPGMAKIPAGELQIIDKIDAAFKVAATAAATAPADDKFTVFEAAFNKAIKESTGGAYDTYKCIPSLEAAVKQAYAATVAAAPQVKYAVFEAALTKAITAMSEVQKVSQPATGAATVAAGAATTAAGAASGAATVAAGGYKV ?
A) 2.2 nM

Q) Quick one: IC50 of rPhl p 5b deletion mutant DM3 (deletion A154-T177, A220T) (protein) ADAGYAPATPAAAGAAAGKATTEEQKLIEDINVGFKAAVAAAASVPAADKFKTFEAAFTSSSKAAAAKAPGLVPKLDAAYSVAYKAAVGATPEAKFDSFVASLTEALRVIAGALEVHAVKPVTEEPGMAKIPAGELQIIDKIDAAFKVAATAAGGAYDTYKCIPSLEAAVKQAYAATVAAAPQVKYAVFEAALTKTITAMSEVQKVSQPATGAATVAAGAATTAAGAASGAATVAAGGYKV ?
A) 50 nM

Q) Quick one: IC50 of rPhl p 5b point mutant PM3 (A13C) (protein) ADAGYAPATPAACGAAAGKATTEEQKLIEDINVGFKAAVAAAASVPAADKFKTFEAAFTSSSKAAAAKAPGLVPKLDAAYSVAYKAAVGATPEAKFDSFVASLTEALRVIAGALEVHAVKPVTEEPGMAKIPAGELQIIDKIDAAFKVAATAAATAPADDKFTVFEAAFNKAIKESTGGAYDTYKCIPSLEAAVKQAYAATVAAAPQVKYAVFEAALTKAITAMSEVQKVSQPATGAATVAAGAATTAAGAASGAATVAAGGYKV ?
A) 5.5 nM
